Listed below: CMV-LACZ in Myoblasts (β-galactosidase activity relative to DMSO) values for each entry.
- Test system: β-galactosidase in CMV-LacZ C2C12 myoblasts
- protocol_notes: CMV-LacZ secondary screen in C2C12 myoblasts (β-Gal stabilizing assay)
- Type: cell-based, mouse
- recorded_conditions: 10 uM; CMV-LacZ C2C12 myoblasts

Recorded results for 5 compounds are shown here.
- compound: "CCc1nc2ccccc2c(C(=O)NCc2ccccc2)c1C [MLS000688267-01]"
  measured_target: "β-galactosidase in CMV-LacZ C2C12 myoblasts"
  assay_result: 0.8935
- compound: "Cc1nnc(-c2ccc(N3CCOCC3)c([N+](=O)[O-])c2)o1 [MLS001359861-01]"
  measured_target: "β-galactosidase in CMV-LacZ C2C12 myoblasts"
  assay_result: 0.8064
- compound: "COc1ccc(CN2CCNC(=O)C2CC(=O)NCCc2c[nH]c3ccccc23)c(OC)c1 (stereo not drawn) [MLS000734270-01]"
  measured_target: "β-galactosidase in CMV-LacZ C2C12 myoblasts"
  assay_result: 0.9468
- compound: "O=C(CSc1nnc(COc2ccc(Br)cc2)o1)NC1CCCCC1 [MLS001215357-01]"
  measured_target: "β-galactosidase in CMV-LacZ C2C12 myoblasts"
  assay_result: 1.0378
- compound: "COCCSc1ccccc1C(=O)Nc1cc(C)cc(C)c1 [MLS000675441-01]"
  measured_target: "β-galactosidase in CMV-LacZ C2C12 myoblasts"
  assay_result: 0.8690

Request: # query: CMV-LACZ in Myoblasts (β-galactosidase activity relative to DMSO) of entry O=C(CSc1nnc2c(n1)[nH]c1ccccc12)NCc1ccccc1F [MLS001225512-01]
Result: 1.4266

Request: # query: CMV-LACZ in Myoblasts (β-galactosidase activity relative to DMSO) of entry O=C1Nc2ccccc2/C1=C/c1ccccc1F [MLS001202389-01]
Result: 0.8920

Request: # query: CMV-LACZ in Myoblasts (β-galactosidase activity relative to DMSO) of entry CC(O)CNc1nc2c(c(=O)n(Cc3ccc(Br)cc3)c(=O)n2C)n1C (stereo not drawn) [MLS001212319-01]
Result: 0.8600

Request: # query: CMV-LACZ in Myoblasts (β-galactosidase activity relative to DMSO) of entry CCOn1c(=O)c(-c2ccccc2)[n+]([O-])c2ccccc21 [MLS001197220-01]
Result: 1.1383

----------
Listed below: CMV-LACZ in Myotubes, value relative to DMSO values for each entry.
- System: β-galactosidase in CMV-LacZ C2C12 myotubes
- protocol_notes: CMV-LacZ secondary screen in C2C12 myotubes (β-Gal stabilizing assay)
- Type: cell-based, mouse
- recorded_conditions: 1 uM; SU9516 analogs, C2C12 CMV-LacZ, N=2
- From the text: In order to determine compounds that acted to stabilize β-gal in myogenic cells, a CMV-LacZ C2C12 cell line was used in a secondary screen. The EGFP gene from the pEGFP (Clontech) vector was replaced by LACZ PCR product with digests of the vector/PCR product performed using EcoRI (NEB) and NotI (NEB) and ligated using T4 DNA Ligase (NEB) following standard procedures to produce the CMV-LACZ vector. […]
A bare number is all that is needed in reply.

Recorded results for 5 molecules are shown here.
- molecule: "COc1ccc2c(c1)C(=C(C#N)C#N)C(=O)N2CCc1ccccc1"
  assay_result: 0.8593
- molecule: "Cc1cc(C)c(/C=C2\\C(=O)Nc3ccccc32)[nH]1 [NCGC00094381-04]"
  assay_result: 1.4927
- molecule: "COc1ccc(C(=O)/C=C2/C(=O)Nc3ccccc32)cc1"
  assay_result: 0.9638
- molecule: "O=C1Nc2ccccc2/C1=C/c1cccnc1"
  assay_result: 0.8459
- molecule: "Cc1ccc2c(c1)/C(=C/c1ccccc1C)C(=O)N2"
  assay_result: 0.8695

Pending molecule:
Request: Identify the measured CMV-LACZ in Myotubes, value relative to DMSO of COc1ccc(C(=O)/C=C2/C(=O)Nc3ccccc32)cc1OC for β-galactosidase in CMV-LacZ C2C12 myotubes.
Result: 1.1562
